Data origin: patent US20240166635A1

Parameter pIC50: see the listing below.
- ASSAYED_TARGET: CDK4/Cyclin D1 (Homo sapiens (Human))
- Sequence (P11802 whole entry): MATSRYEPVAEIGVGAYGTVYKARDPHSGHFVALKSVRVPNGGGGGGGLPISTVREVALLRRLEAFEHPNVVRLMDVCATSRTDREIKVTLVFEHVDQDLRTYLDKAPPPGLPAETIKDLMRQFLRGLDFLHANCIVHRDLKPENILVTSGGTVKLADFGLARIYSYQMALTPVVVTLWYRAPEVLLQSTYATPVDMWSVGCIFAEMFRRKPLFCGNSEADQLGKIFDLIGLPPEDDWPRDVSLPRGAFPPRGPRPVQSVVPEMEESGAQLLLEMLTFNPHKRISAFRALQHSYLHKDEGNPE
- Sequence (P24385 whole entry partner): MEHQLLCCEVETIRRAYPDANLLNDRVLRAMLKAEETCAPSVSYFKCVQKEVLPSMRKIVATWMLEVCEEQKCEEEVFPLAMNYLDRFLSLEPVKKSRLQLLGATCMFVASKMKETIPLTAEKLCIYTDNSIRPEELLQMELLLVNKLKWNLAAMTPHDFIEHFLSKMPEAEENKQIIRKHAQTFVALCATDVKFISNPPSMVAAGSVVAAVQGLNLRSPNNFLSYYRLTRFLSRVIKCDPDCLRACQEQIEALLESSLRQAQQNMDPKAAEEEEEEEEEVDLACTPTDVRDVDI
- PROTOCOL_NOTES: CDK4/CyclinD1 kinase inhibitory activity (Caliper mobility shift)
pIC50: −log10 of the molar value.

Example entries and their recorded answers appear below.
[2H]C([2H])([2H])NS(=O)(=O)c1ccc(Nc2ncc(C(F)(F)F)c(OC3CCCC3)n2)cc1	7.00 to 8.00
NS(=O)(=O)c1ccc(Nc2ncc(C(F)(F)F)c(O[C@@H]3CCC[C@@H]3O)n2)cc1 (single isomer, unassigned) [Example 99a]	6.00 to 7.00
N#Cc1cnc(Nc2ccc(S(N)(=O)=O)cc2)nc1N1CCCCC1	7.00 to 8.00

Can you share its pIC50? I mean this compound: CC1(O)CC(F)(F)CC1Oc1nc(NC2CCN(S(=O)(=O)CC3CC3)CC2)ncc1C#N (single isomer, unassigned) [Example 44a]
6.00 to 7.00
